Items are presented alongside their recorded FACS geometric mean fold change over Jurkat parental.
Biological target: T1, huCD33-R69 stably expressed on Jurkat cells (human, UniProt P20138 18-364)
T1 construct: whole, on cells; >200,000 receptors per cell; also called CD33 WT; CD33^ARG69
T1 sequence (P20138 18-364): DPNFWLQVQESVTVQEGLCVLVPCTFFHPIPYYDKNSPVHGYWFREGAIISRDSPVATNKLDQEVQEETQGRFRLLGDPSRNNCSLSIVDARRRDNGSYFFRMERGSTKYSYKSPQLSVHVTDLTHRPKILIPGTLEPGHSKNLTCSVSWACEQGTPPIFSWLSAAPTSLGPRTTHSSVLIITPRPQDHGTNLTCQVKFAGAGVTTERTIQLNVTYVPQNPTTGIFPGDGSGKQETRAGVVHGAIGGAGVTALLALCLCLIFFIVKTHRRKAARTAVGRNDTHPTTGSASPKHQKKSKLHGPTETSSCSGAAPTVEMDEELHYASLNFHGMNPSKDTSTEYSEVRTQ
Test: FACS on cells;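 further: fixed Jurkat lines probed with myc-tagged scFv periplasmic extracts, anti-myc PE flow cytometry, PE MFI fold binned − <2, + 2–10, ++ 10–30, +++ >30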

Polypeptide No. 124 (scFv, V domains shown, scFv) VH: EVQLVESGGGLVKPGGSLRLSCAASGFTFSSYWMHWVRQAPGKGLEWVAVIWYDGSNKYYADSVKGRFTISRDDSKNTLYLQMNSLKTEDTAVYYCVRDGARSGMDVWGQGTTVTVSS VL: EIVMTQSPATLSVSPGERATLSCRASQSVSTYVAWYQQKPGQAPRLLIYGASTRATGIPARFSGSGSGTEFTLTISSLQSEDFAVYYCQQYYDTPLTFGGGTKVEIKR | > 30 fold
Polypeptide No. 107 (scFv, V domains shown, scFv) VH: QVQLVQSGAEVKKPGSSVKVSCKASGYTFTDYYIHWVRQAPGQGLEWMGGIIPIFGTANYAQKFQGRVTITADESTSTAYMELSSLRSEDTAVYYCAREPLWFGESSPHDYYGMDVWGQGTLVTVSS VL: DIQMTQSPSSLSASVGDRVTITCQASQDISNYLNWYQQKPGKAPKLLIYAASTLQSGVPSRFSGSGSGTDFTLTISSLQPEDFATYYCQQSYSSPPTFGQGTKVEIKR | 10 to 30 fold
Polypeptide No. 140 (scFv, V domains shown, scFv) VH: EVQLVESGGGLVKPGGSLRLSCAASGITVSSSWMHWVRQAPGKGLEWVSAIGTGGGTHYADSVKGRFTISRDDSKNTLYLQMNSLKTEDTAVYYCARDQGGQIDHWGQGTLVTVSS VL: DIQMTQSPSSLSASVGDRVTITCRASQSISSWLAWYQQKPGKAPKLLIYDASTLQSGVPSRFSGSGSGTDFTLTISSLQPEDFATYYCQQSYSIPLTFGGGTKVEIKR | 2 to 10 fold

Input line: Check the records and state FACS geometric mean fold change over Jurkat parental for Polypeptide No. 138 (scFv, V domains shown, scFv) VH: QVQLVQSGAEVKKPGASVKVSCKASGYTFSSYDMHWVRQAPGQGLEWMGVINPGGGYTNYAQKFQGRVTMTRDTSTSTVYMELSSLRSEDTAVYYCARDEGWELLLDYWGQGTLVTVSS VL: EIVMTQSPATLSVSPGERATLSCRASQSVGSNLAWYQQKPGQAPRLLIYGASTRATGIPARFSGSGSGTEFTLTISSLQSEDFAVYYCQQSHSLPPTFGQGTRLEIKR
Output line: 10 to 30 fold
